The origin of these recorded values is patent US20090048301A1.

- Test system: bovine tubulin
- assay_overview: In vitro tubulin polymerization assay (turbidity at 340 nm)
- Type: biochemical
- run_parameters: 10 μM compound, 30 minute data point, vs 1% DMSO control
measured_attribute: Tubulin Assay: percent inhibition at 10 μM based on 30 minute data (%)
Field format: number, assumed %, no unit text.

Answered cases to consult:
COc1cccc(Nc2nnc(-c3cccnc3Nc3ccc4cn[nH]c4c3)[nH]2)c1 | 70
COc1cccc(-c2nnc(-c3ccccc3NCc3ccc4[nH]cnc4c3)[nH]2)c1 | 28
COc1cc(Nc2ncccc2-c2nnc(Nc3ccc(OC)c(OC)c3)o2)cc(OC)c1 | 40
Fc1ccc(CNc2ncccc2-c2nnc(Nc3ccc4c(c3)OCCO4)o2)cc1 | 82
COc1cccc(Nc2ncc(-c3ccccc3NCc3ccc4c(c3)OCO4)o2)c1 | 60

Query: Item under review: COc1cc(Nc2ncccc2-c2nnc(Nc3cccc(NCc4ccc5c(c4)OCO5)c3)[nH]2)cc(OC)c1 . Reported Tubulin Assay: percent inhibition at 10 μM based on 30 minute data?
Response: 99

Query: Quick one: Tubulin Assay: percent inhibition at 10 μM based on 30 minute data of CS(=O)(=O)c1ccc(-c2nnc(-c3cccnc3NCc3cccc(F)c3)o2)cc1 ?
Response: 52

Query: What value of Tubulin Assay: percent inhibition at 10 μM based on 30 minute data has been recorded for this entry: COc1cccc(-c2nnc(-c3cccnc3NCCc3c[nH]cn3)[nH]2)c1
Response: 25

Query: Consider the compound shown here: c1cnc(OCc2ccc3c(c2)OCO3)c(-c2nnc(Nc3ccc4c(c3)OCCO4)o2)c1 What is its recorded Tubulin Assay: percent inhibition at 10 μM based on 30 minute data?
Response: 80

Query: # query: Tubulin Assay: percent inhibition at 10 μM based on 30 minute data of entry COc1ccc(CNc2nnc(-c3cccnc3Nc3cc(OC)cc(OC)c3)[nH]2)cc1
Response: 88

Query: Can you look up the measured Tubulin Assay: percent inhibition at 10 μM based on 30 minute data of c1cncc(CCNc2ncccc2-c2nnc(Nc3ccc4c(c3)OCCO4)[nH]2)c1 for me?
Response: 23

Query: Would you kindly share the measured Tubulin Assay: percent inhibition at 10 μM based on 30 minute data for COc1cc(OC)cc(-c2nnc(-c3ccccc3NCc3ccncc3)[nH]2)c1 ?
Response: 46
